Reference source: patent US12533339B2

Target: E6 WT/E6AP (Human papillomavirus type 16, UniProt P03126)
Sequence (P03126 8-158): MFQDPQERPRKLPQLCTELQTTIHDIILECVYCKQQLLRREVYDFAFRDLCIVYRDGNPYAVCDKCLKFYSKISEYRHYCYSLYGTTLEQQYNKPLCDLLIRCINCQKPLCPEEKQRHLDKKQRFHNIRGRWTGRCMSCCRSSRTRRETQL
Experiment: biochemical
Format: binding
Details: 10 μM compound, WT 16E6
quantityKind: inhibition at 10 µM

C=CC(=O)N1CCCN(C(=O)CN2CCc3sccc3C2c2ccccc2C)CC1 (stereo not shown) | 0%
C=CC(=O)N1CCN(c2nc(Cc3ccc(F)cc3)nc3sc4c(c23)CCCC4)CC1 | 16%
C=CC(=O)N1CCN(c2nc(-c3ccccc3)nc3sc4c(c23)CCCC4)CC1 | 26%
C=CC(=O)N1CCN(c2nc(NCc3ccccc3)nc3sc4c(c23)CCCC4)CC1 | 18%

----------
Below is a list of entries, each paired with its recorded inhibition at 10 µM value.
Target: E6 WT/E6AP (Human papillomavirus type 16, UniProt P03126)
Assay: biochemical
Type: binding
Settings: 10 μM compound, WT 16E6
quantityKind: inhibition at 10 µM (%)

O=C(CCl)N1CCN(c2nc(CCc3ccccc3)nc3sc4c(c23)CCCC4)CC1 [EIN-125] | 54
C=CC(=O)N1CCN(c2nc(CCc3ccccc3OC)nc3sc4c(c23)CCCC4)CC1 [EIN-145] | 32
COc1ccc(C2c3ccsc3CCN2CC(=O)N2CCN(C(=O)CCl)C(C)C2)cc1 (stereo not drawn) [EIN-121] | 24
C=CC(=O)N1CCN(c2nc(N(C)Cc3cccc(F)c3)nc3sc4c(c23)CCCC4)CC1 [EIN-141] | 0
C=CC(=O)N1CCN(c2nc(CCc3cccc(F)c3)nc3sc4c(c23)CCCC4)CC1 [EIN-137] | 35
C=CC(=O)N1CCN(c2nc(Cc3ccccc3)nc3sc4c(c23)CCCC4)CC1 [EIN-135] | 0
CCCCc1nc(N2CCN(C(=O)CCl)CC2)c2c3c(sc2n1)CCCC3 [EIN-126] | 18
Cc1sc2nc(CCc3ccccc3)nc(N3CCN(C(=O)CCl)CC3)c2c1C [EIN-128] | 47
C=CC(=O)N1CCN(c2nc(N(C)Cc3ccccc3F)nc3sc4c(c23)CCCC4)CC1 [EIN-140] | 6
